target: cyclin D1/cdk 4 enzyme (Homo sapiens, UniProt P11802); construct: made in house; host or cells: Sf9 insect cells, recombinant baculovirus; experiment: CDK4 ELISA kinase assay (phospho-Rb ser 795 detection); assay type: biochemical; conditions: In Vitro Enzyme Assays, 200 μM ATP, read-out: CDK4 IC50
Sequence (P11802 whole entry, species assumed): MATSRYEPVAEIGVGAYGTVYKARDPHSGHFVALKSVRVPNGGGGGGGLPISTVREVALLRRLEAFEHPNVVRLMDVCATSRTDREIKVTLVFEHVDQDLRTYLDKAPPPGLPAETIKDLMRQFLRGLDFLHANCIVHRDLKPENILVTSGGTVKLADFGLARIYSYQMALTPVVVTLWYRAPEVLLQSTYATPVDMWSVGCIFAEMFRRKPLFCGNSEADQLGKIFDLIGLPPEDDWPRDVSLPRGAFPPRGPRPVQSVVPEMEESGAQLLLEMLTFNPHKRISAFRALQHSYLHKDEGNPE
Sequence (P24385 whole entry partner, species assumed): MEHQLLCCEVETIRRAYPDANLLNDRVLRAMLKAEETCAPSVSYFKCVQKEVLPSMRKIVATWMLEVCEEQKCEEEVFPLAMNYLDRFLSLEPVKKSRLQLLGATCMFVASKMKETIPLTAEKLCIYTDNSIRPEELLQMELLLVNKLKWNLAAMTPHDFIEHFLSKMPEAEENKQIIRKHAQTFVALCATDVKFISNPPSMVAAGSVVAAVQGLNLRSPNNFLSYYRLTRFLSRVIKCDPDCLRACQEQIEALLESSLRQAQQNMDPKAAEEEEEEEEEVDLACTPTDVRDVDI
pIC50: −log10 of the molar value.
Label not satisfied if pIC50 falls below 6; label satisfied in every other case.

INSERT INTO measurements (compound, classlabel) VALUES
  ('O=C1NC(=O)c2ccc(Br)cc2/C1=C/Nc1ccc(N2CCC(N3CCCC3)CC2)nc1 [Example 407]', 'not satisfied'),
  ('O=C1NCc2ccccc2C1=CNc1ccc(CCN2CCCC2)cc1 [Example 170]', 'not satisfied'),
  ('O=C1NC(=O)c2ccc(Br)cc2/C1=C/NCc1cccnc1 [compound 30]', 'not satisfied'),
  ('O=C1NC(=O)c2ccc(Br)cc2/C1=C/Nc1ccc(CN2CCCC2)cc1 [Example 59]', 'satisfied'),
  ('C=CC(=O)Nc1ccc(CN/C=C2\C(=O)NC(=O)c3ccc(Br)cc32)cc1O [Example 301]', 'satisfied'),
  ('O=C1NC(=O)c2ccc(I)cc2/C1=C/Nc1ccc(CN2CCC(O)CC2)cc1 [Example 440]', 'satisfied'),
  ('CC(=O)Oc1cc(CN/C=C2\C(=O)NC(=O)c3ccc(Br)cc32)cc2c1OC(C)(C)O2 [Example 268]', 'not satisfied'),
  ('O=C1NC(=O)c2ccc(-c3ccc(F)cc3)cc2/C1=C/Nc1ccc(CN2CCCC2)cc1 [Example 127]', 'satisfied'),
  ('CN(C)CCCCN/C=C1\C(=O)NC(=O)c2ccc(Br)cc21 [Example 305]', 'not satisfied'),
  ('O=C(/C=C\Cl)Nc1ccc(CN/C=C2\C(=O)NC(=O)c3ccc(I)cc32)cc1O [Example 337]', 'satisfied'),
  ('CN1CCN(c2ccc(N/C=C3\C(=O)NC(=O)c4ccc(NC(=O)Cc5cccs5)cc43)cc2)CC1 [Example 198]', 'not satisfied'),
  ('COc1cc(CN/C=C2\C(=O)NC(=O)c3ccc(Br)cc32)cc(O)c1OC [compound 78]', 'satisfied'),
  ('CN(C)Cc1ccc(N/C=C2\C(=O)NC(=O)c3ccccc32)cc1 [Example 25]', 'not satisfied'),
  ('O=C1NC(=O)c2ccc(I)cc2/C1=C/NCc1ccc(NC(=O)c2ccccc2)c(O)c1 [Example 334]', 'satisfied'),
  ('COc1ccc(CN/C=C2\C(=O)NC(=O)c3ccc(-c4cccc(F)c4)cc32)cc1O [Example 209]', 'satisfied'),
  ('NC(=O)C1CCN(c2ccc(N/C=C3\C(=O)NC(=O)c4ccc(I)cc43)cc2)CC1 [Example 430]', 'not satisfied');
